Measured values drawn from patent US11014908B2 for this set.

# tested.system: HbS (Homo sapiens, UniProt P68871+P69905, E7V)
# Construct: HbS was obtained from the blood of homozygous S/S patients
# assay: 'R'-'T' assay (conversion of oxy HbS to deoxy HbS under deoxygenating conditions)
# condition.description: 50% inhibition of HbS 'R'-'T' conversion; 3 uM HbS, <1% O2
pIC50: −log10 of the molar value.
Quick reference for pIC50 among some compounds
observable: pIC50

> print(dat)
                                    compound  result.number
 1  C[C@H](Oc1cc2cc(F)ccc2nc1N)c1nc(OCCO)ccc1-n1cccn1           5.42
 2  C[C@H](Oc1cc2cc(F)ccc2nc1N)c1cc(OCC(=O)O)ccc1-n1cccn1           5.41
 3  C[C@H](Oc1cc2ncc(F)cc2nc1N)c1nc(O)ccc1-n1cccn1           5.33
 4  C[C@H](Oc1cc2cc(F)ccc2nc1N)c1cc(C(N)=O)c(F)cc1-n1cccn1           5.35
 5  C[C@H](Oc1cc2cc(C(N)=O)c(F)cc2nc1N)c1nc2[nH]ncc2cc1-n1cccn1           4.54
 6  C[C@H](Oc1cc2cc(C(N)=O)ccc2nc1N)c1nc(OCCO)ccc1-n1cccn1           5.28
 7  C[C@H](Oc1cc2c(F)ccc(F)c2nc1N)c1cc(C(=O)O)ccc1-n1cccn1           5.35
 8  C[C@H](Oc1cc2cc(F)cc(F)c2nc1N)c1cc2c(cnn2CCO)cc1-n1cccn1           5.52
 9  C[C@H](Oc1cc2cc(F)ccc2nc1N)c1cc(C(=O)O)ccc1-n1cccn1           5.31
10  C[C@H](Oc1cc2cc(C(N)=O)ccc2nc1N)c1cc2c(cnn2CCO)cc1-n1cccn1 (single isomer, unassigned)           5.37
11  C[C@H](Oc1cc2cc(F)cc(F)c2nc1N)c1ncc(F)cc1-n1cccn1           5.44
12  C[C@H](Oc1cc2cc(F)ccc2nc1N)c1ncc(F)cc1-n1cccn1           5.37

* * *

# tested.system: Hb in human whole blood (Homo sapiens, UniProt P68871+P69905)
# Construct: measured in human, dog, and mouse whole blood; from tissue; host or cells: human whole blood
# assay: Whole blood oxygen affinity assay (Hemox analyzer), human blood
# condition.description: 1 mM compound, 1 hour at 25 C, relative to DMSO
# Procedure: Whole Blood Oxygen Affinity Assay Oxygen affinity is a marker of the ability of Hb to bind and release oxygen in solution. It can be determined in whole blood by measuring the percentage of oxygenated and deoxygenated Hb present at a given oxygen concentration. […] To determine the effects of compounds of the invention on oxygen affinity the p50 and p20 were measured in human, dog, and mouse whole blood using a Hemeox Analyzer (TCS Scientific). […]
observable: Reduction in p20 (%) Human

> print(dat)
                                  structure  endpoint.unit  result.number
1  C[C@H](Oc1cc2cc(F)ccc2nc1N)c1nc(O)ccc1-n1cccn1              %             24
2  C[C@H](Oc1cc2cc(F)ccc2nc1N)c1cc(C(=O)O)ccc1-n1cccn1              %             40
3  C[C@H](Oc1cc2cc(C(N)=O)ccc2nc1N)c1cc2[nH]ncc2cc1-n1cccn1              %             14

* * *

Reported pKd values for a set of molecules
# tested.system: purified sickle cell hemoglobin (HbS) (Homo sapiens, UniProt P68871+P69905, E7V)
# Construct: HbS was obtained from the blood of homozygous S/S patients
# assay: Binding affinity to purified HbS by Surface Plasmon Resonance (SPR)
# condition.description: crosslinked biotinylated HbS, 1:1 binding model
pKd: −log10 of the molar value.
observable: pKd

> print(dat)
                                    molecule                             tested.system  observable  result.number
 1  C[C@H](Oc1cc2cc(F)ccc2nc1N)c1nc(OCC(=O)O)ccc1-n1cccn1 [Example 40]  purified sickle cell hemoglobin (HbS) (Homo sapiens, UniProt P68871+P69905, E7V)         pKd           6.79
 2  Cc1cc2nc(N)c(O[C@@H](C)c3cc(C(=O)O)ccc3-n3cccn3)cc2cn1 [Example 22]  purified sickle cell hemoglobin (HbS) (Homo sapiens, UniProt P68871+P69905, E7V)         pKd           6.76
 3  COCCNC(=O)c1ccc(-n2cccn2)c([C@H](C)Oc2cc3cc(F)ccc3nc2N)c1 [Example 11]  purified sickle cell hemoglobin (HbS) (Homo sapiens, UniProt P68871+P69905, E7V)         pKd           7.21
 4  C[C@H](Oc1cc2cc(Br)ccc2nc1N)c1ncc(F)cc1-n1cccn1 [Example 25]  purified sickle cell hemoglobin (HbS) (Homo sapiens, UniProt P68871+P69905, E7V)         pKd           7.17
 5  C[C@H](Oc1cc2cc(F)ccc2nc1N)c1cc2[nH]cnc2cc1-n1cccn1 [Example 63]  purified sickle cell hemoglobin (HbS) (Homo sapiens, UniProt P68871+P69905, E7V)         pKd           6.82
 6  C[C@H](Oc1cc2cc(F)ccc2nc1N)c1nc2[nH]ncc2cc1-n1cccn1 [Example 68]  purified sickle cell hemoglobin (HbS) (Homo sapiens, UniProt P68871+P69905, E7V)         pKd           7.82
 7  C[C@H](Oc1cc2cc(F)ccc2nc1N)c1cc2[nH]ncc2cc1-n1cccn1 (single isomer, unassigned) [Example 59]  purified sickle cell hemoglobin (HbS) (Homo sapiens, UniProt P68871+P69905, E7V)         pKd           7.33
 8  C[C@H](Oc1cc2cc(F)ccc2nc1N)c1cc2c(cnn2CCO)cc1-n1cccn1 [Example 73]  purified sickle cell hemoglobin (HbS) (Homo sapiens, UniProt P68871+P69905, E7V)         pKd           7.70
 9  C[C@H](Oc1cc2cc(C(N)=O)c(F)cc2nc1N)c1nc2[nH]ncc2cc1-n1cccn1 [Example 76]  purified sickle cell hemoglobin (HbS) (Homo sapiens, UniProt P68871+P69905, E7V)         pKd           7.85
10  C[C@H](Oc1cc2cc(C(C)(C)O)ccc2nc1N)c1nc(O)ccc1-n1cccn1 [Example 50]  purified sickle cell hemoglobin (HbS) (Homo sapiens, UniProt P68871+P69905, E7V)         pKd           5.87
11  C[C@H](Oc1cc2cc(F)ccc2nc1N)c1cc(C(=O)NCC(=O)O)ccc1-n1cccn1 [Example 10]  purified sickle cell hemoglobin (HbS) (Homo sapiens, UniProt P68871+P69905, E7V)         pKd           6.68

* * *

# tested.system: HbS (Homo sapiens, UniProt P68871+P69905, E7V)
# Construct: HbS was obtained from the blood of homozygous S/S patients
# assay: 'R'-'T' assay (conversion of oxy HbS to deoxy HbS under deoxygenating conditions)
# condition.description: 50% inhibition of HbS 'R'-'T' conversion; 3 uM HbS, <1% O2
observable: IC50 (µM)

> print(dat)
                                    compound  observable  result.number
 1  C[C@H](Oc1cc2cc(C#N)ccc2nc1N)c1ncc(F)cc1-n1cccn1        IC50           4.91
 2  C[C@H](Oc1cc2cc(F)ccc2nc1N)c1cc(-c2n[nH]c(=O)o2)ccc1-n1cccn1        IC50           4.38
 3  C[C@H](Oc1cc2cc(F)ccc2nc1N)c1cc2nn(CC(=O)O)cc2cc1-n1cccn1        IC50           4.61
 4  C[C@H](Oc1cc2cc(F)ccc2nc1N)c1cc2[nH]ncc2cc1-n1cccn1 (single isomer, unassigned)        IC50            4.5
 5  C[C@H](Oc1cc2cc(Br)ccc2nc1N)c1cc(C(N)=O)ccc1-n1cccn1 (single isomer, unassigned)        IC50           5.06
 6  C[C@H](Oc1cc2cc(CO)ccc2nc1N)c1nc(O)ccc1-n1cccn1        IC50           6.39
 7  C[C@H](Oc1cc2cc(F)ccc2nc1N)c1cc2c(cnn2CCO)cc1-n1cccn1        IC50           4.51
 8  C[C@H](Oc1cc2cc(F)c(Cl)cc2nc1N)c1ncc(F)cc1-n1cccn1        IC50           4.96
 9  C[C@H](Oc1cc2cc(F)ccc2nc1N)c1cc(C(=O)NCC(=O)O)ccc1-n1cccn1        IC50           5.86
10  C[C@H](Oc1cc2cc(C(N)=O)ccc2nc1N)c1ncccc1-n1cccn1        IC50           6.25
11  Cc1cc2nc(N)c(O[C@@H](C)c3cc(C(=O)O)ccc3-n3cccn3)cc2cn1        IC50            5.4
